assay: Dissociation constant, pKa of the compound; assay type: physicochemical
READOUT NAME: pKa
Answers are plain numbers.

input: Please give measured pKa of the following entry: Nc1nc2c(ncn2[C@@H]2O[C@@H]3CNc4c(c(=O)c4=O)N[C@H]3[C@H]2O)c(=O)[nH]1
output: 2.3

###

system: HeLa; assay: Cytotoxicity against human HeLa cells assessed as reduction in cell viability incubated for 24 hrs by MTT assay; type: functional, cell-based
Exercise: for every item that follows, state its recorded IC50.
Numbers only, in µM.

COc1c(Nc2ccc3ccccc3c2-c2c(O)ccc3ccccc23)c(=O)c1=O; 46.7

Now take the following compound into account.
input: Please give measured IC50 of the following entry: COc1c(Nc2ccc3c4c(cccc24)-c2ccccc2-3)c(=O)c1=O
output: 0.88
